test system: Escherichia coli TOP10; assay: shrunken log2 fold change of peptide-encoding DNA abundance (4.5 h post-induction vs induction); higher = less antimicrobial activity (less host growth inhibition); conditions: time post-induction: 4.5 h; library: site-saturation at positions 5, 18, 19, 20
Label 1.0 for high-side shrunken log2 fold change (at or above -0.09) and 0.0 for low-side shrunken log2 fold change (below it).

1) RRIRNRPPRLPRPRPRPRFMPRP    0.0
2) RRIRHRPPRLPRPRPRPIWSPRP    1.0
3) RRIRKRPPRLPRPRPRPTARPRP    1.0
4) RRIRARPPRLPRPRPRPAGFPRP    1.0
5) RRIRDRPPRLPRPRPRPWSNPRP    0.0
6) RRIRKRPPRLPRPRPRPDMQPRP    1.0
7) RRIRIRPPRLPRPRPRPHAGPRP    0.0
8) RRIRIRPPRLPRPRPRPQDNPRP    0.0
9) RRIRPRPPRLPRPRPRPTRNPRP    1.0
10) RRIRFRPPRLPRPRPRPVHEPRP    1.0
11) RRIRTRPPRLPRPRPRPMRTPRP    1.0
12) RRIRERPPRLPRPRPRPFPVPRP    0.0

====

Attribute: shrunken log2 fold change
system: Escherichia coli TOP10; experiment: shrunken log2 fold change of peptide-encoding DNA abundance (4.5 h post-induction vs induction); higher = less antimicrobial activity (less host growth inhibition); settings: time post-induction: 4.5 h; library: site-saturation at positions 5, 18, 19, 20;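 also: peptides expressed intracellularly from a pBAD plasmid library in pooled LB shake-flask culture, induced with 0.3% L-arabinose, DNA abundance read by NGS, three biological replicates, DESeq2 with apeglm shrinkage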
measured_parameter: shrunken log2 fold change

1) RRIRMRPPRLPRPRPRPQLCPRP    0.237
2) RRIRERPPRLPRPRPRPTWQPRP    0.0759
3) RRIRGRPPRLPRPRPRPFRLPRP    -0.194
4) RRIRFRPPRLPRPRPRPMMQPRP    -0.297
5) RRIRCRPPRLPRPRPRPYVRPRP    -0.0787
6) RRIRHRPPRLPRPRPRPAWFPRP    0.211
7) RRIRNRPPRLPRPRPRPGLWPRP    0.737
8) RRIRGRPPRLPRPRPRPEEEPRP    0.107
9) RRIRGRPPRLPRPRPRPWQQPRP    0.0543
10) RRIRYRPPRLPRPRPRPFFKPRP    -0.518
11) RRIRSRPPRLPRPRPRPPQPPRP    0.432
12) RRIRERPPRLPRPRPRPNRQPRP    0.0895
13) RRIRERPPRLPRPRPRPAMIPRP    -0.0554
14) RRIRVRPPRLPRPRPRPGDHPRP    -0.0257
15) RRIRPRPPRLPRPRPRPIIVPRP    -0.178
16) RRIRYRPPRLPRPRPRPHSSPRP    -0.207
17) RRIRGRPPRLPRPRPRPSWIPRP    -0.0436
18) RRIRNRPPRLPRPRPRPEIFPRP    -0.0153
19) RRIRCRPPRLPRPRPRPLAPPRP    0.268
20) RRIRWRPPRLPRPRPRPMFDPRP    0.139
21) RRIRVRPPRLPRPRPRPSIRPRP    -0.285
22) RRIRPRPPRLPRPRPRPHTMPRP    -0.143
23) RRIRFRPPRLPRPRPRPGQMPRP    0.172
24) RRIRMRPPRLPRPRPRPDCLPRP    1.54
25) RRIRMRPPRLPRPRPRPQGMPRP    0.0363
